# Target: Nucleophosmin (NPM) (Homo sapiens)
# Construct: gene NPM1; full-length NPM (SPR); C-terminal domain residues 243–294 (DSF)
# Sequence (P06748 whole entry, the tested form may be a part): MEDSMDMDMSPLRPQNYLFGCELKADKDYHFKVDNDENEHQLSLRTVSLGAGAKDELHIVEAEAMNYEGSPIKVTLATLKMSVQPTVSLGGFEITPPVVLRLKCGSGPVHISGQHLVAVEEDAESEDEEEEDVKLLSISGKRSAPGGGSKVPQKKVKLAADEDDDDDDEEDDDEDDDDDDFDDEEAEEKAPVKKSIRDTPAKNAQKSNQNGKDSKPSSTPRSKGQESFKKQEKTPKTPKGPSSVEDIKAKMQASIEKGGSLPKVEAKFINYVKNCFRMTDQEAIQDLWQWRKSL
# Test Details: SPR steady state ([…] model, S0.[…] ≈ KD); DSF ΔTm […] °C at […] with C-terminal domain
# Assay type: binding
pKd: −log10 of the molar value.

- Molecule: "Cc1ccc(-n2c(SCC(=O)Nc3ccc4c(c3)OCCO4)nc3ccccc3c2=O)cc1 [C3]"
  Target: "Nucleophosmin (NPM) (Homo sapiens)"
  pKd: 3.99

----------
# Target: Nucleophosmin (NPM) (Homo sapiens)
# Construct: gene NPM1; full-length NPM (SPR); C-terminal domain residues 243–294 (DSF)
# Test Details: SPR steady state ([…] model, S0.[…] ≈ KD); DSF ΔTm […] °C at […] with C-terminal domain; Trp fluorescence unfolding
# Format: binding

- Compound: "CC1=C(C(=O)Nc2ccc(Br)cn2)C(c2ccccn2)C2=C(CC(c3ccccc3)CC2=O)N1 (stereo not shown)"
  Kd: "68 µM"
